# PROTOCOL_DETAILS: Tmax in Sprague-Dawley rat at 10 mg/kg, po
# Format: ADME, organism-based
# CONDITION: in vivo
PROPERTY_NAME: Tmax (min)

Cc1nc(-c2cc3cc(OC(C)C)cc([N+](=O)[O-])c3[nH]2)sc1C(=O)O: 25.2

###

# PROTOCOL_DETAILS: Cmax in Sprague-Dawley rat at 10 mg/kg, po
# Type: ADME, organism-based
# Set-up: dose 10 mg/kg, route oral
# CONDITION: in vivo
The reader will find reported Cmax values listed item by item below.
PROPERTY_NAME: Cmax (ng/mL)

Cc1nc(-c2cc3cc(Oc4ccccc4)cc([N+](=O)[O-])c3[nH]2)sc1C(=O)O: 3200
Cc1nc(-c2cc3cc(OC4CCCC4)cc(C#N)c3[nH]2)sc1C(=O)O: 720
Cc1nc(-c2cc3cc(N4CCCCC4)cc(C#N)c3[nH]2)sc1C(=O)O: 740
Cc1nc(-c2cc3cc(NC4CCCC4)cc(C#N)c3[nH]2)sc1C(=O)O: 300
Cc1nc(-c2cc3cc(OC(C)C)cc(C#N)c3[nH]2)sc1C(=O)O: 3750
Cc1nc(-c2cc3cc(OC(C)C)cc([N+](=O)[O-])c3[nH]2)sc1C(=O)O: 4940

###

The reader will find reported log10(half-life) values listed item by item below.
# PROTOCOL_DETAILS: Half life in rat liver microsomes
# Type: ADME
PROPERTY_NAME: log10(half-life) (log10 of the value in h)

Cc1nc(-c2cc3cc(OC4CCCC4)cc(C#N)c3[nH]2)sc1C(=O)O: 0.32
Cc1nc(-c2cc3cc(OC(C)C)cc(C#N)c3[nH]2)sc1C(=O)O: 0.34
Cc1nc(-c2cc3cc(OCC(C)C)ccc3[nH]2)sc1C(=O)O: 0.21
Cc1nc(-c2cc3cc(Oc4ccccc4)cc(C#N)c3[nH]2)sc1C(=O)O: 0.56
Cc1nc(-c2cc3cc(OC(C)C)cc([N+](=O)[O-])c3[nH]2)sc1C(=O)O: 0.62
Cc1nc(-c2cc3cc(N4CCCCC4)cc(C#N)c3[nH]2)sc1C(=O)O: 0.40
Cc1nc(-c2cc3cc(NC4CCCC4)cc(C#N)c3[nH]2)sc1C(=O)O: 0.47
Cc1nc(-c2cc3cc(Oc4ccccc4)cc([N+](=O)[O-])c3[nH]2)sc1C(=O)O: 0.61
COc1cc([N+](=O)[O-])c2[nH]c(-c3nc(C)c(C(=O)O)s3)cc2c1: -0.40
Cc1nc(-c2cc3cc(NCc4ccccc4)cc(C#N)c3[nH]2)sc1C(=O)O: 0.18
Cc1nc(-c2cc3cc(CNS(C)(=O)=O)cc([N+](=O)[O-])c3[nH]2)sc1C(=O)O: 1.16
Cc1nc(-c2cc3cc(Oc4ccccc4)cc(Br)c3[nH]2)sc1C(=O)O: 0.18
Cc1nc(-c2cc3cc(Oc4ccccc4)ccc3[nH]2)sc1C(=O)O: 0.29
Cc1nc(-c2cc3cc(Oc4ccccc4)cc(Cl)c3[nH]2)sc1C(=O)O: 0.67

###

# PROTOCOL_DETAILS: AUC (0 to last) in Sprague-Dawley rat at 10 mg/kg, po
# Type: ADME, organism-based
# Set-up: dose 10 mg/kg, route oral, time 0 - last
# CONDITION: in vivo
PROPERTY_NAME: AUC(0-t) (ng·h/mL)

Cc1nc(-c2cc3cc(OC(C)C)cc([N+](=O)[O-])c3[nH]2)sc1C(=O)O: 8230

Values compiled from ChEMBL document CHEMBL3751738.
